molecular target: Cytochrome P450 2C9 (Homo sapiens)
Sequence (P11712 whole entry): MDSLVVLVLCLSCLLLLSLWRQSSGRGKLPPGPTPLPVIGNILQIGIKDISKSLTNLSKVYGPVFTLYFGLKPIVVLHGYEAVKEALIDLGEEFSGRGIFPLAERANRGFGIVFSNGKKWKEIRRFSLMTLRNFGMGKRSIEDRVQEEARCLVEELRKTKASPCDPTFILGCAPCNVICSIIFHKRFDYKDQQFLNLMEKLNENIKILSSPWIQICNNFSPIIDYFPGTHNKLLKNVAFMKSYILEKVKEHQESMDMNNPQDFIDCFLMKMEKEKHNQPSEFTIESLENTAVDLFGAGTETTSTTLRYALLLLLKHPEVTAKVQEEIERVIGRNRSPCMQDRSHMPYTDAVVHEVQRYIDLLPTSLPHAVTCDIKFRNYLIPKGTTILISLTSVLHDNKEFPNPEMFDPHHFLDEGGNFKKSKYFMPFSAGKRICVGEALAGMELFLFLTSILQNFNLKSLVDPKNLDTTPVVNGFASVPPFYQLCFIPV
pIC50: −log10 of the molar value.
endpoint_name: pIC50

> print(dat)
                                   compound  qualifier.sign  reported.result
1  CC(=O)C1=C(C)N(c2cccc(C(F)(F)F)c2)C(=O)N(CC(=O)O)[C@@H]1c1ccc(C#N)cc1               =             4.51
2  CC1=C(C#N)[C@@H](c2ccc(C#N)cc2)N(C)C(=O)N1c1cccc(C(F)(F)F)c1               =             4.64
3  CCN(CC)CCN1C(=O)N(c2cccc(C(F)(F)F)c2)C(C)=C(C(C)=O)[C@H]1c1ccc(C#N)cc1               <             4.30
4  CCOC(=O)C1=C(N)N(c2cccc(C(F)(F)F)c2)C(C)=C(C(C)=O)C1c1ccc(C#N)cc1 (stereo not drawn)               =             6.30
5  CCOC(=O)C1=C(C)N(c2cccc(C(F)(F)F)c2)C(=O)N(CC(=O)O)[C@@H]1c1ccc(C#N)cc1               <             4.30
6  CCOC(=O)C1=C(C)N(c2cccc(C(F)(F)F)c2)C(=O)N[C@@H]1c1ccc(C#N)cc1               =             5.30
7  CC(=O)C1=C(C)N(c2cccc(C(F)(F)F)c2)C(=O)N[C@@H]1c1ccc(C#N)nc1               =             4.92
8  CCOC(=O)C1=C(N)N(c2cccc(C(F)(F)F)c2)C(C)=C(C(C)=O)C1c1ccc(Br)cc1 (stereo not drawn)               =             6.22

---

target: UniProt:P06870
Sequence (P06870 whole entry): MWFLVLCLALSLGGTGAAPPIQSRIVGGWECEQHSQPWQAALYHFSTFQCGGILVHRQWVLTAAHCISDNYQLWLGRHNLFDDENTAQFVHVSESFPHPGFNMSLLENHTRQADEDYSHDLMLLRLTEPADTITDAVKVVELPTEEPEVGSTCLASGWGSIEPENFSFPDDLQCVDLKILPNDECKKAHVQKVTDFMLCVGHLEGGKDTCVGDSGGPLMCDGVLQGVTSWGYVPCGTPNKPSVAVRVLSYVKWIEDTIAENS
pIC50: −log10 of the molar value.
endpoint_name: pIC50

> print(dat)
                               input.smiles             tgt  reported.result
1  CC1=C(C#N)[C@@H](c2ccc(C#N)cc2S(C)(=O)=O)N(C)C(=O)N1c1cccc(C(F)(F)F)c1  UniProt:P06870           < 4.52
2  CC(=O)C1=C(C)N(c2cccc(C(F)(F)F)c2)C(=O)N[C@@H]1c1ccc(C#N)nc1  UniProt:P06870           < 4.52

---

Coagulation factor IX (Homo sapiens, UniProt P00740) IC50 data
Sequence (P00740 47-191 limits assumed): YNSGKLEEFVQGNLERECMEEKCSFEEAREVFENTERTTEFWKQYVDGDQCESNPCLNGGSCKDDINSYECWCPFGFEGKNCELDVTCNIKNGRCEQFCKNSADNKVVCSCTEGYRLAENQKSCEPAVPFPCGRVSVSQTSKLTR
Sequence (P00740 227-461 limits assumed): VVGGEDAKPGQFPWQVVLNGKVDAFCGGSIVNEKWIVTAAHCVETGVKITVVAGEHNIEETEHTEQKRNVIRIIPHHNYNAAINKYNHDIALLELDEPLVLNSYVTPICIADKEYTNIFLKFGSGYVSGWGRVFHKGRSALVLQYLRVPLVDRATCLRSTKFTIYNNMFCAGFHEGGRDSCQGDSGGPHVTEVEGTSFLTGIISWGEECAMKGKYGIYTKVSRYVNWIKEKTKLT
endpoint_name: IC50

> print(dat)
                               input.smiles                                       tgt  endpoint.name  reported.result
1  CC1=C(C#N)[C@@H](c2ccc(C#N)cc2S(C)(=O)=O)N(C)C(=O)N1c1cccc(C(F)(F)F)c1  Coagulation factor IX (Homo sapiens, UniProt P00740)           IC50          > 30 µM
2  CC(=O)C1=C(C)N(c2cccc(C(F)(F)F)c2)C(=O)N[C@@H]1c1ccc(C#N)nc1  Coagulation factor IX (Homo sapiens, UniProt P00740)           IC50          > 30 µM

---

biological target: Plasma kallikrein (Homo sapiens); test: Inhibition of kallikrein-B1 (unknown origin)
Sequence (P03952 20-390 limits assumed): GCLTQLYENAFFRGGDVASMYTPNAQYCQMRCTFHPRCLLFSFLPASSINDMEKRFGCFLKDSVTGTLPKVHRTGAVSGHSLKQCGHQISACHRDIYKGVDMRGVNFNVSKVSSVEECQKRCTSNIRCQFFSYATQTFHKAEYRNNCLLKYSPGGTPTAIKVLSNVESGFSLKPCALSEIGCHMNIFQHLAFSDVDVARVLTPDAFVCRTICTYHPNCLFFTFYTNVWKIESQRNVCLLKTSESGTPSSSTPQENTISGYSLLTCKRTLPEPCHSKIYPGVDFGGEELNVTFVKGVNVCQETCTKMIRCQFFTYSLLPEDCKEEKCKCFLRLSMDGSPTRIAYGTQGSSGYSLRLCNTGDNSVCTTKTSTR
Sequence (P03952 391-638 limits assumed): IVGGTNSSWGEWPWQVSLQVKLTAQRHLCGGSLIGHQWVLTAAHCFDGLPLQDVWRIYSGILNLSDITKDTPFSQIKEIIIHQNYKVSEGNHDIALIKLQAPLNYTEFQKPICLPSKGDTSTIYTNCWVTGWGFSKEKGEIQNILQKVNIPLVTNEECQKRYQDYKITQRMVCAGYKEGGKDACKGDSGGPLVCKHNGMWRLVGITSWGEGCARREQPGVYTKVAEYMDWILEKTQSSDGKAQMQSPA
pIC50: −log10 of the molar value.
endpoint_name: pIC50

> print(dat)
                                   compound  endpoint.name  reported.result
1  CC(=O)C1=C(C)N(c2cccc(C(F)(F)F)c2)C(=O)N[C@@H]1c1ccc(C#N)nc1 [BAY-678]          pIC50           < 4.52
2  CC1=C(C#N)[C@@H](c2ccc(C#N)cc2S(C)(=O)=O)N(C)C(=O)N1c1cccc(C(F)(F)F)c1          pIC50           < 4.52

---

Coagulation factor XI (Homo sapiens, UniProt P03951) pIC50 data
Sequence (P03951 19-387 limits assumed): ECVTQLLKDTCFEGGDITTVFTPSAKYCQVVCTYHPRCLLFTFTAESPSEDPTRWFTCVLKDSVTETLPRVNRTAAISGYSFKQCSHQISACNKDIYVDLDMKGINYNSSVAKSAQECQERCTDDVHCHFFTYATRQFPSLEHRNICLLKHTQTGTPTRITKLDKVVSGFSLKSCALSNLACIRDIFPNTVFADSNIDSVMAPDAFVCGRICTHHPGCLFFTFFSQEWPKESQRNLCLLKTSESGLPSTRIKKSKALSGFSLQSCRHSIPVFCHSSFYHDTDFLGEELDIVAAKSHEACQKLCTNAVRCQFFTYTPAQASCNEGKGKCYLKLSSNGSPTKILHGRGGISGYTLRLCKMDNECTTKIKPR
Sequence (P03951 388-625 limits assumed): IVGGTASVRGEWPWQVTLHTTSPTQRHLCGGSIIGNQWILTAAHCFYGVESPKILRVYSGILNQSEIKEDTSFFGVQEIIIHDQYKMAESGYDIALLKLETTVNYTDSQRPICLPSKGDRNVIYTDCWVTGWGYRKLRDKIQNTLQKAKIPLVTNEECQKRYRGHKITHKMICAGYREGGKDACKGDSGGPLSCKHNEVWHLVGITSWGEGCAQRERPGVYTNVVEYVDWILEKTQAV
pIC50: −log10 of the molar value.
endpoint_name: pIC50

> print(dat)
                                   compound  reported.result
1  CC(=O)C1=C(C)N(c2cccc(C(F)(F)F)c2)C(=O)N[C@@H]1c1ccc(C#N)nc1 [BAY-678]           < 4.52
2  CC1=C(C#N)[C@@H](c2ccc(C#N)cc2S(C)(=O)=O)N(C)C(=O)N1c1cccc(C(F)(F)F)c1           < 4.52
